tested on: 926638-142-R-J1-PDC complex spheroid viability; experiment: Anticancer human tumor 926638-142-R-J1-PDC patient-derived endometrial carcinoma cell line growth inhibition [POLQ]; conditions: curve of first compound; second compound 3.16 µM
PROPERTY NAME: IC50

See these solved cases before continuing.
COc1cccc(OCCCN)c1-c1cc(Nc2cnc(C#N)cn2)n[nH]1 + Nc1ccc(C#CCN(C(=O)Cc2ncc(C(F)(F)F)cc2C(F)(F)F)c2ccc(F)cc2)nn1: 40.6 nM
CNCc1ccc(-c2[nH]c3cc(F)cc4c3c2CCNC4=O)cc1 + COC1C(OC(N)=O)C(O)C(Oc2ccc3c(O)c(NC(=O)c4ccc(O)c(CC=C(C)C)c4)c(=O)oc3c2C)OC1(C)C: > 10000 nM
C#Cc1c(F)ccc2cc(O)cc(-c3ncc4c(N5CC6CCC(C5)N6)nc(OCC56CCCN5CC(F)C6)nc4c3F)c12 (stereo not given) + Nc1ccc(C#CCN(C(=O)Cc2ncc(C(F)(F)F)cc2C(F)(F)F)c2ccc(F)cc2)nn1: > 10000 nM
COc1cccc(OCCCN)c1-c1cc(Nc2cnc(C#N)cn2)n[nH]1 + COC1C(OC(N)=O)C(O)C(Oc2ccc3c(O)c(NC(=O)c4ccc(O)c(CC=C(C)C)c4)c(=O)oc3c2C)OC1(C)C: 70.5 nM
C#Cc1c(F)ccc2cc(O)cc(-c3ncc4c(N5CC6CCC(C5)N6)nc(OCC56CCCN5CC(F)C6)nc4c3F)c12 (stereo not given) + COC1C(OC(N)=O)C(O)C(Oc2ccc3c(O)c(NC(=O)c4ccc(O)c(CC=C(C)C)c4)c(=O)oc3c2C)OC1(C)C: > 10000 nM

// IC50 lookup, compound = CC(C)n1c(=O)n(C)c2cnc3cc(F)c(-c4ccc(OCCCN5CCCCC5)nc4)cc3c21 + COC1C(OC(N)=O)C(O)C(Oc2ccc3c(O)c(NC(=O)c4ccc(O)c(CC=C(C)C)c4)c(=O)oc3c2C)OC1(C)C , result: > 10000 nM

// IC50 lookup, compound = C=CCn1c(=O)c2cnc(Nc3ccc(N4CCN(C)CC4)cc3)nc2n1-c1cccc(C(C)(C)O)n1 + Nc1ccc(C#CCN(C(=O)Cc2ncc(C(F)(F)F)cc2C(F)(F)F)c2ccc(F)cc2)nn1 , result: 618 nM

====

Test system: 926638-142-R-J1-PDC complex spheroid viability
Test: Anticancer human tumor 926638-142-R-J1-PDC cell line growth inhibition [POLQ];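 also: spheroids exposed to drugs for one week before readout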;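 as to viability, T/C: percent viability relative to DMSO vehicle control wells set as 100%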
Details: second compound 10 µM; first compound 0.1 µM; stronger effect = lower value
Protocol: Multicellular complex tumor spheroid response to Polymerase (POL) inhibitors (novobiocin, ART-558, RP6685) in combination with a variety of drugs and investigational agents in selected tumor cell lines The POL inhibitors (novobiocin, ART-558, and RP6685) were evaluated both individually and in combination with standard of care and investigational anticancer small molecules within a complex spheroid model of solid tumors. . […]
Label 1.0 when viability, T/C is strictly below 90%; at or above that, label 0.0.

These solved cases illustrate the format of a correct answer.
Cn1ncnc1[C@H]1c2n[nH]c(=O)c3cc(F)cc(c23)N[C@@H]1c1ccc(F)cc1 + Nc1ccc(C#CCN(C(=O)Cc2ncc(C(F)(F)F)cc2C(F)(F)F)c2ccc(F)cc2)nn1: 1.0
O=C(Nc1ccc(O)c(NS(=O)(=O)c2ccc(F)cc2)c1)c1ccc(-c2ccccc2)cc1 + Cc1cccc(N(C)C(=O)C2C(O)CCN2c2nc(C)cc(C(F)(F)F)c2C#N)c1: 1.0
COc1cccc2c1C(=O)c1c(O)c3c(c(O)c1C2=O)CC(O)(C(=O)CO)CC3OC1CC(N)C(O)C(C)O1 (stereo not given) + COC1C(OC(N)=O)C(O)C(Oc2ccc3c(O)c(NC(=O)c4ccc(O)c(CC=C(C)C)c4)c(=O)oc3c2C)OC1(C)C: 1.0

Q. Does the reported viability, T/C of C#Cc1c(F)ccc2cc(O)cc(-c3ncc4c(N5CC6CCC(C5)N6)nc(OCC56CCCN5CC(F)C6)nc4c3F)c12 (stereo not given) + Nc1ccc(C#CCN(C(=O)Cc2ncc(C(F)(F)F)cc2C(F)(F)F)c2ccc(F)cc2)nn1 stay below 90%?
A. 1.0

Q. Does the reported viability, T/C of C=CC(=O)N1CCN(c2nc(=O)n(-c3c(C)ccnc3C(C)C)c3nc(-c4c(O)cccc4F)c(F)cc23)C(C)C1 (stereo not given) + COC1C(OC(N)=O)C(O)C(Oc2ccc3c(O)c(NC(=O)c4ccc(O)c(CC=C(C)C)c4)c(=O)oc3c2C)OC1(C)C stay below 90%?
A. 0.0

Q. Does the reported viability, T/C of Cn1ncnc1[C@H]1c2n[nH]c(=O)c3cc(F)cc(c23)N[C@@H]1c1ccc(F)cc1 + COC1C(OC(N)=O)C(O)C(Oc2ccc3c(O)c(NC(=O)c4ccc(O)c(CC=C(C)C)c4)c(=O)oc3c2C)OC1(C)C stay below 90%?
A. 1.0

Q. Does the reported viability, T/C of COc1cc(C2c3cc4c(cc3C(OC3OC5COC(C)OC5C(O)C3O)C3COC(=O)C23)OCO4)cc(OC)c1O (stereo not given) + Cc1cccc(N(C)C(=O)C2C(O)CCN2c2nc(C)cc(C(F)(F)F)c2C#N)c1 stay below 90%?
A. 1.0

Q. Does the reported viability, T/C of COc1ccc([C@@H](O)c2cc(-c3ncnc4cc(N5CCOCC5)ccc34)c(F)cc2Cl)nn1 + Cc1cccc(N(C)C(=O)C2C(O)CCN2c2nc(C)cc(C(F)(F)F)c2C#N)c1 stay below 90%?
A. 0.0
